The measurements presented in this section are drawn from a melting point compilation (Tetko et al.; mined from patent text by program, amines drawn as free bases though some values may be those of a salt).

Provide the recorded melting point for the entries that follow.
One number for each entry, in °C.

Hello, I would appreciate it if you could give melting point for each entry below.
1. OC1CSC(Oc2cc(-c3cncnc3)cc(F)c2F)C(O)C1O (centres undefined)
2. O=C(N[C@H]1CC[C@H](CCN2CCC(c3ccc(F)c4occc34)CC2)CC1)C1CCOCC1
3. O=C(C(=O)c1cccc(I)c1)c1cccc(I)c1

1: 191; 2: 208; 3: 127

Dear colleague, I am looking for the recorded melting point of the following compound: `CCOC(=O)c1cn(CCCl)c2cc(Cl)c(F)cc2c1=O`
222

----------
ENDPOINT: melting point

INSERT INTO measurements (compound, endpoint, measured) VALUES
  ('CCCC1=C(C#N)C(c2ccccc2OC)c2c[nH]nc2N1 (centres undefined)', 'melting point', '203 °C'),
  ('CC(C)Oc1n[nH]cc1C(=O)NCc1ccc(Cl)cc1Cl', 'melting point', '185 to 186 °C');

List reported melting point for each of these compounds:
1. O=C(NC1CCCCC1)OCc1ccccc1[N+](=O)[O-]
2. CC(C)[C@H](NC(=O)[C@@H](CSC(=O)c1ccccc1)SC(=O)c1ccccc1)C(=O)N1CCC[C@H]1C(=O)O
3. COCCN1CCn2c1nc(C(=O)O)c(OCc1ccccc1)c2=O
4. O=S(=O)(Nc1ccc(Oc2cccc3cccnc23)cc1)c1ccc(Cl)cc1
5. CC(C)Cn1c(CNC(=O)OC(C)(C)C)c(-c2ccccc2F)c2cc(C(=O)O)ccc2c1=O
6. O=C(c1ccc(-c2ccccc2)cc1)c1cccnc1
7. O=c1[nH]c(-c2ccc(CCN3CCN(c4cccc5cc(F)ccc45)CC3)cc2)cs1

["101 to 102 °C", "85 to 93 °C", "125 to 126 °C", "220 °C", "213 to 214 °C", "112 to 115 °C", "228 to 270 °C"]
